All figures here come from paper PMC9599461.

target: SERT (Homo sapiens, UniProt P31645); test: Stereoselective uptake into SERT-overexpressing HEK293 cells; conditions: SERT; quotient of vmax over Km;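 note: uptake into HEK293 cells stably expressing human SERT over 2 min, enantiomers measured in cell lysate by chiral HPLC-MS/MS, normalized to total protein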
Sequence (P31645 whole entry): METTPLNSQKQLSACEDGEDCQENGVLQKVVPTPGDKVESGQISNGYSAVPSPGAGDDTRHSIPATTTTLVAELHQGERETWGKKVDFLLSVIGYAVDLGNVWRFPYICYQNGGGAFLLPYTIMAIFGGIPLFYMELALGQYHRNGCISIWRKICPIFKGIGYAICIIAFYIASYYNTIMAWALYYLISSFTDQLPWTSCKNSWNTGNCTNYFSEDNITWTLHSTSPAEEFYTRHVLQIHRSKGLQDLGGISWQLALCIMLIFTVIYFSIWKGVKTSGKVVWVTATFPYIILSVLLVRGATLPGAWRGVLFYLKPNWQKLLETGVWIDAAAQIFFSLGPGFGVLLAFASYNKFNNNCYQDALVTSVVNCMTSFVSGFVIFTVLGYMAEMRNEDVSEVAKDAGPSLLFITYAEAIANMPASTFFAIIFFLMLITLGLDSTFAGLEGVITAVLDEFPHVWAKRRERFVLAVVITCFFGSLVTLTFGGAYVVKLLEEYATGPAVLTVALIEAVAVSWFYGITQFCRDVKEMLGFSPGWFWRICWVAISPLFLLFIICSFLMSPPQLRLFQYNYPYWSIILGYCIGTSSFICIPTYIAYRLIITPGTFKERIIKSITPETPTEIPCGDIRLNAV
reported.endpoint: Clint ± SEM

Q: What reported Clint ± SEM corresponds to CNCC(O)c1ccc(O)c(OC)c1 (single isomer, unassigned) [Metanephrine-1, Metanephrine] on SERT (Homo sapiens, UniProt P31645)?
A: 0.58 mL × g Protein^−1 × min^−1

Q: What reported Clint ± SEM corresponds to CNC[C@H](O)c1ccc(O)cc1 [(R)-Synephrine] on SERT (Homo sapiens, UniProt P31645)?
A: 0.69 mL × g Protein^−1 × min^−1

Q: What reported Clint ± SEM corresponds to COc1cc(C(O)CN)ccc1O (single isomer, unassigned) [Normetanephrine-1, Normetanephrine] on SERT (Homo sapiens, UniProt P31645)?
A: 2.23 mL × g Protein^−1 × min^−1

Q: What reported Clint ± SEM corresponds to NCC(O)c1cccc(O)c1 (single isomer, unassigned) [Norphenylephrine-2, Norphenylephrine] on SERT (Homo sapiens, UniProt P31645)?
A: 1.83 mL × g Protein^−1 × min^−1

Q: What reported Clint ± SEM corresponds to NC[C@@H](O)c1ccc(O)cc1 [(S)-Octopamine] on SERT (Homo sapiens, UniProt P31645)?
A: 2.42 mL × g Protein^−1 × min^−1

Q: What reported Clint ± SEM corresponds to NC[C@H](O)c1ccc(O)c(O)c1 [(R)-Norepinephrine] on SERT (Homo sapiens, UniProt P31645)?
A: 4.12 ± 1.31 mL × g Protein^−1 × min^−1

* * *

target: OCT1 (Homo sapiens); test: Stereoselective uptake into OCT1-overexpressing HEK293 cells; conditions: OCT1; ratio between enantiomers, given as for (R) or for 1 (first-eluting);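 note: enantiomers quantified inside cells by chiral HPLC-MS/MS, uptake normalized to total protein from bicinchoninic acid assay, substrates applied in HBSS+ buffer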
Sequence (O15245 whole entry): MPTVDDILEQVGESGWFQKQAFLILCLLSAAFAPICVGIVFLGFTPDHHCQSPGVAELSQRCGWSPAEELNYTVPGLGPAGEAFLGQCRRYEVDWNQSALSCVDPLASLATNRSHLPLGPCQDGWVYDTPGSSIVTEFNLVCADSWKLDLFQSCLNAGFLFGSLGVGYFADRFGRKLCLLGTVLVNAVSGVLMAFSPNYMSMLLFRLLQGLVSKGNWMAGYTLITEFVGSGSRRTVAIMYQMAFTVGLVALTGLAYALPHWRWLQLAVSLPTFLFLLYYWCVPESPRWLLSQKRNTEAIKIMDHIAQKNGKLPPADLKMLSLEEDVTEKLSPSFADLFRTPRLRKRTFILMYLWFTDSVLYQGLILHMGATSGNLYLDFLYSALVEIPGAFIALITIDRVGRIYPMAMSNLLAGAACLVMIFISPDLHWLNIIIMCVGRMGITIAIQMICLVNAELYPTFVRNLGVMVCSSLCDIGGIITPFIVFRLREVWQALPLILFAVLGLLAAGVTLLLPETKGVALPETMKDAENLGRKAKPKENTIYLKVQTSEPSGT
Hi there, I'd appreciate the recorded Stereoselectivity Km for every entry that follows.

Q: Query (compound): COc1cc(C(O)CN)ccc1O (single isomer, unassigned) ; field requested: Stereoselectivity Km
A: 1.59 fold

Q: Query (compound): NCC(O)c1cccc(O)c1 (single isomer, unassigned) ; field requested: Stereoselectivity Km
A: 1.03 fold

Q: Query (compound): NC[C@H](O)c1ccccc1 [(R)-Bisnorephedrine] ; field requested: Stereoselectivity Km
A: 1.15 fold

Q: Query (compound): NC[C@@H](O)c1ccccc1 [(S)-Bisnorephedrine] ; field requested: Stereoselectivity Km
A: 1.15 fold

* * *

Hi there, I'd appreciate the recorded selectivity ratio at 2 min for every entry that follows.
target: OCT2 (Homo sapiens, UniProt O15244); test: Stereoselective uptake into OCT2 (wild-type)-overexpressing HEK293 cells; settings: human, Stereoselectivity Km, OCT2; ratio between enantiomers, given as for (R) or for 1 (first-eluting)
Sequence (O15244 whole entry S270A): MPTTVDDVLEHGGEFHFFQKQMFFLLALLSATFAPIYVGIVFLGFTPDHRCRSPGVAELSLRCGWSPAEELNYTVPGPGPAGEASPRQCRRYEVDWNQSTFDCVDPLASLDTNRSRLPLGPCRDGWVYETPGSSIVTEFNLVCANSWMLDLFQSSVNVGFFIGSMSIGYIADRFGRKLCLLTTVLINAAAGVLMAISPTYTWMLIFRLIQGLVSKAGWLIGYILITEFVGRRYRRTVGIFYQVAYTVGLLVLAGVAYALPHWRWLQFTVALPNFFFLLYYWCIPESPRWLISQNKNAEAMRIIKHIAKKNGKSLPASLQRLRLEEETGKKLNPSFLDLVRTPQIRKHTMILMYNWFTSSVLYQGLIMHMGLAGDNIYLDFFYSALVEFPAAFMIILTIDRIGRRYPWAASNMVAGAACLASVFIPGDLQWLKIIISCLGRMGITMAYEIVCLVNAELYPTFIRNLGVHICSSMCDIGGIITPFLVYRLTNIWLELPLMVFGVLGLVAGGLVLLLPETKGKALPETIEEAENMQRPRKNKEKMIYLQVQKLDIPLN
Response field accepts a number only; no unit should be typed.

Q: Query (molecule): CNC[C@H](O)c1cccc(O)c1 [(R)-Phenylephrine] ; field requested: selectivity ratio at 2 min
A: 1.89

Q: Query (molecule): NCC(O)c1cccc(O)c1 (single isomer, unassigned) [Norphenylephrine-1, Norphenylephrine] ; field requested: selectivity ratio at 2 min
A: 1.57

Q: Query (molecule): COc1cc(C(O)CN)ccc1O (single isomer, unassigned) [Normetanephrine-2, Normetanephrine] ; field requested: selectivity ratio at 2 min
A: 1.32

Q: Query (molecule): CNC[C@@H](O)c1cccc(O)c1 [(S)-Phenylephrine] ; field requested: selectivity ratio at 2 min
A: 1.89

Q: Query (molecule): CNC[C@@H](O)c1ccc(O)cc1 [(S)-Synephrine] ; field requested: selectivity ratio at 2 min
A: 2.07

Q: Query (molecule): CNC[C@H](O)c1ccc(O)cc1 [(R)-Synephrine] ; field requested: selectivity ratio at 2 min
A: 2.07
